- system: Full length SHP2 protein (Recombinant Human SHP-2) (Homo sapiens (Human))
- assay.overview: SHP2 biochemical assay (DiFMUP substrate, activating peptide IRSI_2pY)
- test.parameters: SHP-2 biochemical assay IC50 (μM), activating peptide IRSI_2pY 140 nM, DiFMUP, 60 min
Entries annotated with measured IC50
The answer is to be given in µM; state only the numeric part.

molecule	quantity.measured	reported.measurement
Cc1nc(N2CCC[C@](N)(CC(F)F)CC2)cc(=O)n1-c1cccc(Cl)c1Cl (racemic) [Compound 58b]	IC50	1.3

Query :: For Cc1c(N2CCC3(CC2)Oc2ccccc2[C@H]3N)nc(C)n(-c2cccc(Cl)c2Cl)c1=O (single isomer, unassigned) [Compound 81a] , what is its reported IC50?
Result :: 0.47

====

- system: auto-activated mutant protein SHP2 E76K (Homo sapiens (Human), UniProt Q06124, E76K)
- Sequence (Q06124 whole entry E76K): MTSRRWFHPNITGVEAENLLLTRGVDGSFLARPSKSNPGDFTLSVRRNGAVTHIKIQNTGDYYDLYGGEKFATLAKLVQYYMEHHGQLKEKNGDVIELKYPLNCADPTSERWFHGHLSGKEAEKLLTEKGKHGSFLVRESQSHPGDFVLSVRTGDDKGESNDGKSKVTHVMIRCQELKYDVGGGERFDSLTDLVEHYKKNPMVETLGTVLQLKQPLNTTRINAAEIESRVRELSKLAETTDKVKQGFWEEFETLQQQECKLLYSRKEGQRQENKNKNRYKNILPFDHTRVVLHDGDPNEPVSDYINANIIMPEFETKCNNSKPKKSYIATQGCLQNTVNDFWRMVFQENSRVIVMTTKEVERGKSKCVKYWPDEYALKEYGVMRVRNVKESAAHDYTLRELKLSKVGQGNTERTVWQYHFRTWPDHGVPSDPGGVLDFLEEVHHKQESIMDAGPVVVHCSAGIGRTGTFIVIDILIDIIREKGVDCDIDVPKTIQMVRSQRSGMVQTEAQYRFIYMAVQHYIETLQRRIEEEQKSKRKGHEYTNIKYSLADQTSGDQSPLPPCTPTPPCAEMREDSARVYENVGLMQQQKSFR
- assay.overview: SHP2 active mutant E76K biochemical assay with and without activating peptide
- test.parameters: SHP-2 E76Z IC50 (nM) No peptide, without activating peptide
quantity.measured: IC50
Please append the unit to your numeric answer.

compound	quantity.measured	reported.measurement
Cc1c(N2CCC3(CC2)Cc2ncccc2[C@H]3N)nc(C)n(-c2cccc(Cl)c2Cl)c1=O (single isomer, unassigned) [Compound 66b]	IC50	1.9 nM

Query :: Would you mind telling me what IC50 value was observed for Cc1c(N2CCC3(CC2)CO[C@@H](C)[C@H]3N)nc(C)n(-c2cccc(Cl)c2Cl)c1=O (single isomer, unassigned) [Compound 23b] ?
Result :: 21 nM

Query :: Also check Cc1c(N2CCC3(CC2)Oc2ccccc2[C@H]3N)nc(C)n(-c2cccc(Cl)c2Cl)c1=O (single isomer, unassigned) [Compound 81b]
Result :: 0.5 nM

====

# key: entry, value: IC50
- system: auto-activated mutant protein SHP2 E76K (Homo sapiens (Human), UniProt Q06124, E76K)
- assay.overview: SHP2 active mutant E76K biochemical assay with and without activating peptide
- test.parameters: SHP-2 E76Z IC50 (nM) peptide, with activating peptide IRSI_2pY 140 nM
Give the value in nM but do not write nM after it.

compound	IC50 (nM)
Cc1c(N2CCC3(CC2)Oc2ccccc2[C@H]3N)nc(C)n(-c2cccc(Cl)c2Cl)c1=O (single isomer, unassigned) [Compound 81b]	1.1

Query :: Please give the measured IC50 for this compound: Cc1c(N2CCC3(CC2)Cc2ncccc2[C@H]3N)nc(C)n(-c2cccc(Cl)c2Cl)c1=O (single isomer, unassigned) [Compound 66b]
Result :: 1.9

====

The reader will find reported IC50 values listed item by item below.
- system: Full length SHP2 protein (Recombinant Human SHP-2) (Homo sapiens (Human), UniProt Q06124)
- Sequence (Q06124 2-593): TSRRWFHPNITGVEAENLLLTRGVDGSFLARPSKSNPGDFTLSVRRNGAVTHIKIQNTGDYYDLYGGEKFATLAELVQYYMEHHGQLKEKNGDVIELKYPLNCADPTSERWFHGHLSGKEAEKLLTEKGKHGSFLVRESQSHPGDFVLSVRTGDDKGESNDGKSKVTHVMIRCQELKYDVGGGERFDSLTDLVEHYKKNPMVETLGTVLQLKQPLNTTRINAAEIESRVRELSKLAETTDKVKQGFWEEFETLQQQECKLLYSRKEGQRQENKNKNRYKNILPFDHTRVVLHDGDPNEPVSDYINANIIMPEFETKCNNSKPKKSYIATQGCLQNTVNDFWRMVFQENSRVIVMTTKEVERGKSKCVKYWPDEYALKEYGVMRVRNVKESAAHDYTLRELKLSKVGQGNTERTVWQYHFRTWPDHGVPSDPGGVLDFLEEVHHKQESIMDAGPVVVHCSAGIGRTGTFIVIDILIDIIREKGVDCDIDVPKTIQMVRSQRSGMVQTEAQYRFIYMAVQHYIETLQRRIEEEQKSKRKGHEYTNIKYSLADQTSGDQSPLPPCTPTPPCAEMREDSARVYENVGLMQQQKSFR
- assay.overview: SHP2 biochemical assay (DiFMUP substrate, activating peptide IRSI_2pY)
- test.parameters: activating peptide IRSI_2pY 140 nM, DiFMUP, 60 min; read-out: SHP-2 biochemical assay IC50

Below, each entry is followed by its recorded IC50 result.
molecule	reported.measurement
CNC1(C)CCN(c2cc(=O)n(-c3cccc(Cl)c3Cl)c(C)n2)CC1	0.56 µM
Cc1c(N2CCCC3(CCC3N)C2)nc(C)n(-c2cccc(Cl)c2Cl)c1=O (centres unmarked)	3.9 µM

Query :: For Full length SHP2 protein (Recombinant Human SHP-2) (Homo sapiens (Human), UniProt Q06124), provide IC50 of "Cc1nc(N2CCC3(CC2)CO[C@@H](C)[C@H]3N)cc(=O)n1-c1ccccc1" please.
Result :: 4.8 µM

Query :: Next up: "CC1(CN)CCN(c2cc(=O)n(-c3cccc(Cl)c3Cl)c(C(F)F)n2)CC1"
Result :: 3 µM

Query :: Next molecule: Cc1nc(N2CC3CCCC3(CN)C2)cc(=O)n1-c1cccc(Cl)c1Cl (centres unmarked)
Result :: 6.6 µM

Query :: Subsequent entry: Cc1nc(N2C[C@H]3CC(O)C[C@@]3(CN)C2)cc(=O)n1-c1cccc(Cl)c1Cl (some centres unmarked)
Result :: 2.6 µM

Query :: Entry to check: "Cc1c(N2CCC3(CC2)CO[C@@H](C)[C@H]3N)nc(C)n(-c2cccc3ncsc23)c1=O"
Result :: > 10 µM

Query :: Request: Cc1c(N2CCC3(CCC[C@H]3N)CC2)nc(N)n(-c2cccc(Cl)c2Cl)c1=O (single isomer, unassigned) [Compound 78b]
Result :: > 10 µM

====

- system: Full length SHP2 protein (Recombinant Human SHP-2) (Homo sapiens (Human), UniProt Q06124)
- assay.overview: SHP2 biochemical assay (DiFMUP substrate, activating peptide IRSI_2pY)
- test.parameters: activating peptide IRSI_2pY 140 nM, DiFMUP, 60 min; read-out: SHP-2 biochemical assay IC50
quantity.measured: IC50

Query :: Fill blank: measured IC50 of the molecule "Cc1nc(N2CCC(CO)(CCN)CC2)cc(=O)n1-c1cccc(Cl)c1Cl" is ____.
Result :: 4.3 µM

Query :: Check Cc1nc(N2CCC3(CC2)CC3CN)cc(=O)n1-c1cccc(Cl)c1Cl (centres unmarked) too.
Result :: 4.3 µM

Query :: Then this molecule: Cc1c(N2CCCC(CN)CC2)nc(C)n(-c2cccc(Cl)c2Cl)c1=O (centres unmarked)
Result :: 2 µM

Query :: Ok, now "Cc1c(N2CCC(C)(CN)CC2)nc(C)n(-c2ccc3ccccc3c2)c1=O"
Result :: 18 µM

Query :: Consider next the molecule "CSc1nc(N2CCC(C)(N)CC2)cc(=O)n1-c1cccc(Cl)c1Cl" in the same way.
Result :: 8.6 µM

Query :: Could you do the same for "Cc1c(N2CCC3(CC2)CO[C@@H](C)[C@H]3N)nc(C)n(-c2ccc3nccnc3c2)c1=O" , please?
Result :: 6.1 µM

Query :: Moving on to the next molecule: "Cc1c(N2CCC(C)(N)CC2)nc(C)n(-c2ccc3ccccc3c2)c1=O"
Result :: > 10 µM

====

Item-by-item account of IC50
- system: auto-activated mutant protein SHP2 E76K (Homo sapiens (Human), UniProt Q06124, E76K)
- assay.overview: SHP2 active mutant E76K biochemical assay with and without activating peptide
- test.parameters: with activating peptide IRSI_2pY 140 nM, read-out: SHP-2 E76Z IC50 (nM) peptide
Kindly provide the numeric value in nM only, without the unit symbol.

Below are worked cases with known answers.
compound	unit.of.measurement	IC50
Cc1c(N2CCC3(CC2)Cc2ncccc2[C@H]3N)nc(C)n(-c2cccc(Cl)c2Cl)c1=O (single isomer, unassigned) [Compound 66a]	nM	200
[2H]C([2H])([2H])c1c(N2CCC3(CC2)Cc2ccccc2[C@H]3N)nc(C)n(-c2cccc(Cl)c2Cl)c1=O	nM	6.4

Query :: Which IC50 is listed for Cc1c(N2CCC3(CC2)CO[C@@H](C)[C@H]3N)nc(C)n(-c2cccc(Cl)c2Cl)c1=O (single isomer, unassigned) [Compound 23b] ?
Result :: 12

====

- system: Full length SHP2 protein (Recombinant Human SHP-2) (Homo sapiens (Human), UniProt Q06124)
- assay.overview: SHP2 biochemical assay (DiFMUP substrate, activating peptide IRSI_2pY)
- test.parameters: SHP-2 biochemical assay IC50 (μM), activating peptide IRSI_2pY 140 nM, DiFMUP, 60 min
This listing pairs compounds with measured IC50.
Reply with just the number (in µM).

Past entries and their recorded results:
compound	unit.of.measurement	IC50
[2H]C([2H])([2H])c1c(N2CCC3(CC2)CO[C@@H](C)[C@H]3N)nc(C)n(-c2cccc(Cl)c2Cl)c1=O (single isomer, unassigned) [Compound 63b]	µM	0.015
Cc1c(N2C[C@H]3COC[C@@]3(CN)C2)nc(C)n(-c2cccc(Cl)c2Cl)c1=O (racemic) [Compound 34]	µM	1.7
Cc1c(N2CCC3(CC2)Oc2ncccc2[C@@H]3N)nc(C)n(-c2cccc(Cl)c2Cl)c1=O [Compound 79b]	µM	0.006
Cc1nc(N2CCC(C)([C@H](O)CN)CC2)cc(=O)n1-c1cccc(Cl)c1Cl (racemic) [Compound 57b]	µM	3
Cc1c(N2CCC3(CC2)C[C@@H](C)C[C@H]3N)nc(C)n(-c2cccc(Cl)c2Cl)c1=O [Compound 77]	µM	0.006

Next compound, IC50 to be filled in.
Query :: # lookup: IC50 of Cc1nc(N2C[C@@H]3CCC[C@]3(CN)C2)c(C(F)(F)F)c(=O)n1-c1cccc(Cl)c1Cl (racemic) [Compound 25]
Result :: 14

====

Below: a set of entries, each annotated with reported log10(IC50).
- system: Full length SHP2 protein (Recombinant Human SHP-2) (Homo sapiens (Human), UniProt Q06124)
- assay.overview: SHP2 biochemical assay (DiFMUP substrate, activating peptide IRSI_2pY)
- test.parameters: activating peptide IRSI_2pY 140 nM, DiFMUP, 60 min; read-out: SHP-2 biochemical assay IC50
Each number you see is log10 of IC50, and the unit inside the log is nM.

Completed entries (count: 5):
compound	log10(IC50)
Cc1nc(N2CCC(C)(CN)CC2)cc(=O)n1-c1cccc(Cl)c1Cl	2.41
Cc1nc(N2CCC(N)(CO)CC2)cc(=O)n1-c1cccc(Cl)c1Cl	2.71
Cc1c(N2CCC3(CC2)CO[C@@H](C)[C@H]3N)nc(C)n(-c2cccc(Br)c2Cl)c1=O	1.43
CCc1c(N2CCC3(CC2)CO[C@@H](C)[C@H]3N)nc(C)n(-c2cccc(Cl)c2Cl)c1=O	3.70
Cc1c(F)ccc(-n2c(C)nc(N3CCC4(CC3)CO[C@@H](C)[C@H]4N)c(C)c2=O)c1Cl	1.83

Query :: Find the recorded log10(IC50) belonging to Cc1nc(N2CCC3(CCC3N)CC2)cc(=O)n1-c1cccc(Cl)c1Cl (stereo not drawn) and report it.
Result :: 2.75

Query :: Here is the next compound: "Nc1nc(N2CCC3(CC2)Cc2ccccc2[C@H]3N)cc(=O)n1-c1cccc(Cl)c1Cl"
Result :: 1.20

Query :: Proceed to "Cc1c(N2CCC3(CC2)CO[C@@H](C)[C@H]3N)nc(N)n(-c2cccc(Cl)c2Cl)c1=O"
Result :: 2.30

Query :: "Cc1nc(N2CC3CCC(C2)N3)cc(=O)n1-c1cccc(Cl)c1Cl" , same question.
Result :: 3.72

Query :: Okay, and "Cc1c(N2CCC3(CC2)Cc2ccccc2[C@H]3N)nc(N)n(-c2cccc(Cl)c2Cl)c1=O" ?
Result :: 1.18
